System: G-361
ASSAY_DETAILS: Cytotoxicity against human G361 cells after 72 hrs by calcein-AM dye based fluorescence assay
Assay type: functional, cell-based
EXPERIMENTAL_CONTEXT: G-361, 72 h
READOUT_TYPE: pIC50
Please treat pIC50 as minus the base-10 logarithm of the molar concentration.

Input: So what pIC50 did `C=C(C)[C@@H]1CC[C@]2(C(=O)O)CC[C@]3(C)[C@H](CC[C@@H]4[C@@]5(C)CC[C@H](OC(=O)CCC(=O)NCc6ccncc6)C(C)(C)[C@@H]5CC[C@]43C)[C@@H]12` get with G-361?
Output: 4.49

Input: Lab note: need pIC50 with G-361 for entry `C=C(C)[C@@H]1CC[C@]2(C(=O)O)CC[C@]3(C)[C@H](CC[C@@H]4[C@@]5(C)CC[C@H](OC(=O)CCC(=O)NCc6ccccn6)C(C)(C)[C@@H]5CC[C@]43C)[C@@H]12` , please look it up.
Output: 5.62

Input: pIC50 of `C=C(C)[C@@H]1CC[C@]2(C(=O)NCc3ccccn3)CC[C@]3(C)[C@H](CC[C@@H]4[C@@]5(C)CC[C@H](O)C(C)(C)[C@@H]5CC[C@]43C)[C@@H]12` on G-361?
Output: 4.79

Input: Can you look up pIC50 on G-361 for `C=C(C)[C@@H]1CC[C@]2(C(=O)O)CC[C@]3(C)[C@H](CC[C@@H]4[C@@]5(C)CC[C@H](OC(=O)CCC(=O)NCc6cccnc6)C(C)(C)[C@@H]5CC[C@]43C)[C@@H]12` ?
Output: 6.30

Input: # value lookup — system G-361, readout pIC50, item `C=C(C)[C@@H]1CC[C@]2(C(=O)NCc3ccncc3)CC[C@]3(C)[C@H](CC[C@@H]4[C@@]5(C)CC[C@H](O)C(C)(C)[C@@H]5CC[C@]43C)[C@@H]12`
Output: 4.94

Input: Recall the recorded pIC50 for `C=C(C)[C@@H]1CC[C@]2(C(=O)NCc3cccnc3)CC[C@]3(C)[C@H](CC[C@@H]4[C@@]5(C)CC[C@H](O)C(C)(C)[C@@H]5CC[C@]43C)[C@@H]12` with G-361 and state it.
Output: 4.74
